# procedure.text: Half life in fasted Sprague-Dawley rat at 1 mg/kg, po
# Format: ADME, organism-based
# condition.notes: in vivo
assay.readout: half-life (h)
One number for each entry, in h.

Solved entries:
>>> observed_result("COc1cnc2c(-c3nc4cc(F)c5c(c4s3)C[C@H](COC(=O)Nc3cnc(C)nc3)O5)cc(C)cc2n1")
9.8
>>> observed_result("COc1cnc2c(-c3nc4ccc5c(c4s3)C[C@H](COC(=O)Nc3cnc(C)nc3)O5)cc(C)cc2n1")
7
>>> observed_result("COc1ccc(NC(=O)OC[C@H]2COc3c(cc(Cl)c4nc(-c5cc(C)cc6nc(OC)cnc56)sc34)O2)cn1")
16

Next, consider the following molecule.
Incoming: What does the data say about its half-life? Entry: `COc1cnc2c(-c3nc4c(Cl)cc5c(c4s3)OC[C@H](COC(=O)Nc3cnc(C)nc3)O5)cc(C)cc2n1`
Outgoing: 14

All values here come from ChEMBL document CHEMBL5528069.
